conditions: in n-hexane, 283.15 K
readout_label: solubility (mole fraction)
// return a plain number; no unit text

Need solubility (mole fraction), item NC(=O)Cc1ccc(O)cc1 0.00053

###

conditions: in water, 308.15 K
readout_label: solubility (mole fraction)
// print number alone

Query (molecule): NC(=O)Cc1ccc(O)cc1 ; field requested: solubility (mole fraction) 0.00463

###

conditions: in water, 293.15 K
readout_label: solubility (mole fraction)
# respond with the number and nothing more

Could you tell me which solubility (mole fraction) is on file for NC(=O)Cc1ccc(O)cc1 ? 0.00249

###

conditions: in ethanol, 318.15 K
readout_label: solubility (mole fraction)
# answer = number (no unit)

Please report the recorded solubility (mole fraction) for NC(=O)Cc1ccc(O)cc1 . 0.015

###

conditions: in methyl acetate, 303.15 K
readout_label: solubility (mole fraction)
Lab note: record the figure alone, no unit after it.

GET /values?readout=solubility (mole fraction)&item= NC(=O)Cc1ccc(O)cc1 0.0068
